These entries and their values trace back to paper PMC11858513.

- System: P. aeruginosa PAO1
- Type: cell-based, Pseudomonas aeruginosa
- condition: Table 5; regular PAO1 (no GFP), 1x BM2; absorbance 600 nm; mean of three biological replicates
- Description: Figure 4 The MIC (A), MBIC (B) and MBRC (C) values for the peptides were assessed against P. aeruginosa PAO1 in the presence of 1× BM2. The inhibition of planktonic cells, the inhibition of biofilm cells and the reduction in biofilm cells were determined for the peptides by recording of the planktonic cells at 600 nm and quantification of biofilms formed by Pa PAO1 using crystal violet at 595 nm, respectively. […]
Residues, ends and D or L forms follow the SMILES beside them.
quantity: MIC at 600 nm LD50

1) CC(C)C[C@H](NC(=O)[C@H](Cc1ccccc1)NC(=O)[C@H](C)NC(=O)[C@H](Cc1c[nH]c2ccccc12)NC(=O)[C@H](Cc1c[nH]c2ccccc12)NC(=O)[C@H](Cc1c[nH]c2ccccc12)NC(=O)[C@H](C)NC(=O)[C@H](Cc1ccccc1)NC(=O)[C@H](CCCCN)NC(=O)[C@H](CCCCN)NC(=O)[C@@H](N)C(C)C)C(=O)N[C@@H](CCCCN)C(=O)N[C@@H](CCCCN)C(N)=O [Tritrp-P59A-Lys] (H-VKKFAWWWAFLKK-NH2) | 4 µM
2) CC(C)C[C@H](NC(=O)[C@H](Cc1ccccc1)NC(=O)[C@H](C)NC(=O)[C@H](Cc1c[nH]c2ccccc12)NC(=O)[C@H](Cc1c[nH]c2ccccc12)NC(=O)[C@H](Cc1c[nH]c2ccccc12)NC(=O)[C@@H]1CCCN1C(=O)[C@H](Cc1ccccc1)NC(=O)[C@H](CCCNC(=N)N)NC(=O)[C@H](CCCNC(=N)N)NC(=O)[C@@H](N)C(C)C)C(=O)N[C@@H](CCCNC(=N)N)C(=O)N[C@@H](CCCNC(=N)N)C(N)=O [Tritrp-P9A] (H-VRRFPWWWAFLRR-NH2) | 2 µM
3) CC(C)C[C@H](NC(=O)[C@H](Cc1ccccc1)NC(=O)[C@H](C)NC(=O)[C@H](Cc1c[nH]c2ccccc12)NC(=O)[C@H](Cc1c[nH]c2ccccc12)NC(=O)[C@H](Cc1c[nH]c2ccccc12)NC(=O)[C@@H]1CCCN1C(=O)[C@H](Cc1ccccc1)NC(=O)[C@H](CCCCN)NC(=O)[C@H](CCCCN)NC(=O)[C@@H](N)C(C)C)C(=O)N[C@@H](CCCCN)C(=O)N[C@@H](CCCCN)C(N)=O [Tritrp-P9A-Lys] (H-VKKFPWWWAFLKK-NH2) | 4 µM
